Assay: PK analysis of LB-102 in healthy human subjects, single and multiple ascending doses (Example 2)
Type: in vivo
Details: both sexes, human, plasma, oral, 100 mg, 100 mg every 12 hours, D1; read-out: Tmax D1
Method: Healthy females and males between 18 and 55 years of age with BMI≥18 and ≤30 kg/m2 were enrolled in the study. Exclusion criteria included: history or presence of psychiatric disorder, drug or alcohol abuse, history of QT prolongation or dysrhythmia, fasting blood glucose level of 126 mg/dL, or a known allergy to the drug or its metabolites. The study was planned as a two part study. Part A was comprised of 5 single ascending dose groups, each of 8 subjects. […]
Endpoint: Tmax

Field request: Tmax | item: CCN1CCCC1CNC(=O)c1cc(S(=O)(=O)CC)c(NC)cc1OC (stereo not shown) [LB-102] 2.5 h
